Hello, the source for this data is paper PMC5593424, in case you need it.

Tested target: eIF4A (Homo sapiens, UniProt P60842)
Sequence (P60842 whole entry): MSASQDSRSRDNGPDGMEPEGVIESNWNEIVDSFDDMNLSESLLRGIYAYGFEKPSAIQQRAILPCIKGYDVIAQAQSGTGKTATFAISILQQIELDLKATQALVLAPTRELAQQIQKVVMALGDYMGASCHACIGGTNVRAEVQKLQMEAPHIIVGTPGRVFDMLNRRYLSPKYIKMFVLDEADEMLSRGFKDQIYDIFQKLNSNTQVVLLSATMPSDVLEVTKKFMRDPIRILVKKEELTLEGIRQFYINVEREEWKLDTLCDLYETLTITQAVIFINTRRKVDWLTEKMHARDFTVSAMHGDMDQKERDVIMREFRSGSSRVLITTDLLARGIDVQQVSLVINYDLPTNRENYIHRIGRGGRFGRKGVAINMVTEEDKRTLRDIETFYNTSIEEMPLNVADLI
pKi: −log10 of the molar value.

{"Item smiles": "C=C1CC[C@@](C)(c2cc(Br)c(C)cc2O)[C@H]1C", "Tested target": "eIF4A (Homo sapiens, UniProt P60842)", "pKi": 5.41}
